# Tgt: P-gp (Homo sapiens, UniProt P08183)
# Construct: purchased ThermoFisher Scientific GM0015; host or cells: Sf9 membrane vesicles
# Sequence (P08183 whole entry): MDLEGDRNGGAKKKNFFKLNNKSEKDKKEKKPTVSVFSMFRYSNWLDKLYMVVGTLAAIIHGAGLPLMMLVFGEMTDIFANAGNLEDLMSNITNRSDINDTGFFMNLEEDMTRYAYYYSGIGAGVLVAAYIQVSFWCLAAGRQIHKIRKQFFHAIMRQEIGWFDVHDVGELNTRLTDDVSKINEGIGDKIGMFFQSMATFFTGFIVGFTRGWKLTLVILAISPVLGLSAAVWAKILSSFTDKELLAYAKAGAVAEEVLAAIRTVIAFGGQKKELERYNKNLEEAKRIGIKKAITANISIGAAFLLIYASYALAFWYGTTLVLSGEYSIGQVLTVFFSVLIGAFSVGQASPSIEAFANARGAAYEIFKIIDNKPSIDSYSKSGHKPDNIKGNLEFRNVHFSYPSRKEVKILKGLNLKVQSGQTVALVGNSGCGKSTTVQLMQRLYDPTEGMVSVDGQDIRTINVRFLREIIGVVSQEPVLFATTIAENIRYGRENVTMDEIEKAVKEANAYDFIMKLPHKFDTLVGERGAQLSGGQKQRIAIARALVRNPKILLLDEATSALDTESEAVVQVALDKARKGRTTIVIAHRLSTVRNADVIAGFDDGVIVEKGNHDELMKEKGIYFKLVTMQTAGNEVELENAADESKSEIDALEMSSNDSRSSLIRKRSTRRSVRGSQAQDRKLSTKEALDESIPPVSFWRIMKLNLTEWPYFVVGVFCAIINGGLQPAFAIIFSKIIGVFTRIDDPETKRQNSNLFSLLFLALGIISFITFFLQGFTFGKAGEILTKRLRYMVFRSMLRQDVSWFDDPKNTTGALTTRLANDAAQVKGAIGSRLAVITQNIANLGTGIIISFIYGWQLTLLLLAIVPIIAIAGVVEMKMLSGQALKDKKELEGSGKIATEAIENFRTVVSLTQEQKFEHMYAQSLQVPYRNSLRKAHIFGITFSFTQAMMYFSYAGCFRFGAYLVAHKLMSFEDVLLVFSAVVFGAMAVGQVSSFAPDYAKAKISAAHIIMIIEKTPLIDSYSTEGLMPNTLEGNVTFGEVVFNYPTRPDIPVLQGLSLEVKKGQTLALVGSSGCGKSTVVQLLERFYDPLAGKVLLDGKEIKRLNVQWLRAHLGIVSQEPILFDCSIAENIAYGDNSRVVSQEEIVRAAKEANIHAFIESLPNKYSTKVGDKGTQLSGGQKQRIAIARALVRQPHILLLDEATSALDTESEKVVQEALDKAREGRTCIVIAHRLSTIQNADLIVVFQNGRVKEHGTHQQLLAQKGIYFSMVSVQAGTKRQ
# Experiment notes: Vesicular transport assay, 3H-NMQ uptake in P-gp membrane vesicles
# Format: biochemical
# Condition summary: substrate 3H-NMQ; mean ± SD of three independent experiments
Reported property: IC50 (µM)
Your answer should be a plain number; it is taken to be in µM.

Enquiry: Item under review: COc1ccc(O)cc1C(C)(C)C [Butylated hydroxyanisole (BHA), 2-tert-Butyl-4-hydroxyanisole] . Reported IC50?
Return: 182

###

# Tgt: OATP2B1 (Homo sapiens)
# Sequence (O94956 1-709): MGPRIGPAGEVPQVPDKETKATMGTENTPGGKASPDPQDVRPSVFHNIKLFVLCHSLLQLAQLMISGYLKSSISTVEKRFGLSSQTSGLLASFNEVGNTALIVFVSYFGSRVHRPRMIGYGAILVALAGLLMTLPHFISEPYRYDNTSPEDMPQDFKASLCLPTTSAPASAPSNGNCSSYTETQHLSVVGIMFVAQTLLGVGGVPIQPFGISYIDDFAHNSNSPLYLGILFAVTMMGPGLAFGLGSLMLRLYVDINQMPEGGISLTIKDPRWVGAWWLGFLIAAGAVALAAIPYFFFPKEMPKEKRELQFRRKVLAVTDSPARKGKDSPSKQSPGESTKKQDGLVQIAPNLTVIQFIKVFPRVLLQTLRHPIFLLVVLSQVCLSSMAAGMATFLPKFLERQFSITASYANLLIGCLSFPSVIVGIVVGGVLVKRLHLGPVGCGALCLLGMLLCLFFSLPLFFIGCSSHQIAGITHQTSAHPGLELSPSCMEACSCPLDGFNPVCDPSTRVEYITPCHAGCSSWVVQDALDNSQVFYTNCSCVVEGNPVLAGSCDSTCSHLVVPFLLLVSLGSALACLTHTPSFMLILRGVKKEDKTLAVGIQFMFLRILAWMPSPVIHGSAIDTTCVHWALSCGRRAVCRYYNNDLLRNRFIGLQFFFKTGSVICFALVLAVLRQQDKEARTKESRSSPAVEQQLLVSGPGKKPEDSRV
# Experiment notes: Uptake transporter assay, 3H-estrone sulfate uptake in HEK-293-OATP2B1 cells
# Condition summary: IC50 with preincubation, OATP2B1 expressing cells pre-incubated 30 minutes; mean ± SD of three independent experiments
Reported property: pIC50
Keep it numeric: pIC50 is minus log10 of the concentration in mol/L.

Enquiry: Item under review: CCCCCCCCCCCCCCCC(=O)OC[C@H](O)[C@H]1OC(=O)C(O)=C1O [Ascorbyl palmitate (AP), Ascorbyl palmitate] . Reported pIC50?
Return: 4.02

###

# Tgt: BCRP (Homo sapiens)
# Experiment notes: Vesicular transport assay, 3H-CCK8 uptake in BCRP membrane vesicles
# Format: biochemical
# Design: purchased ThermoFisher Scientific GM0008; host or cells: Sf9 membrane vesicles
# Condition summary: antioxidant 200 µM; uptake with DMSO set as 100%; mean ± SD, three replicates; membrane vesicles
Reported property: % Uptake of 3H-CCK8 BCRP (%)
Your answer should be a plain number; it is taken to be in %.

Compound | % Uptake of 3H-CCK8 BCRP [%]
O=C(O)CC(O)(CC(=O)O)C(=O)O [Anhydrous citric acid] | 93.1
O=C(O)/C=C/c1ccc(O)c(O)c1 [Caffeic acid] | 75.8
COc1cc(/C=C/C(=O)O)ccc1O [Ferulic acid] | 91.0
NCCCC[C@H](N)C(=O)O [Lysine] | 109.0

Now turn to the next compound.
Enquiry: Provide value of % Uptake of 3H-CCK8 BCRP for this record tested with BCRP (Homo sapiens): O=C([O-])CN(CCN(CC(=O)[O-])CC(=O)O)CC(=O)O.[Na+].[Na+] [EDTA (edetate disodium), edetate disodium]
Return: 110.4

###

# Tgt: BCRP (Homo sapiens, UniProt Q9UNQ0)
# Sequence (Q9UNQ0 1-655): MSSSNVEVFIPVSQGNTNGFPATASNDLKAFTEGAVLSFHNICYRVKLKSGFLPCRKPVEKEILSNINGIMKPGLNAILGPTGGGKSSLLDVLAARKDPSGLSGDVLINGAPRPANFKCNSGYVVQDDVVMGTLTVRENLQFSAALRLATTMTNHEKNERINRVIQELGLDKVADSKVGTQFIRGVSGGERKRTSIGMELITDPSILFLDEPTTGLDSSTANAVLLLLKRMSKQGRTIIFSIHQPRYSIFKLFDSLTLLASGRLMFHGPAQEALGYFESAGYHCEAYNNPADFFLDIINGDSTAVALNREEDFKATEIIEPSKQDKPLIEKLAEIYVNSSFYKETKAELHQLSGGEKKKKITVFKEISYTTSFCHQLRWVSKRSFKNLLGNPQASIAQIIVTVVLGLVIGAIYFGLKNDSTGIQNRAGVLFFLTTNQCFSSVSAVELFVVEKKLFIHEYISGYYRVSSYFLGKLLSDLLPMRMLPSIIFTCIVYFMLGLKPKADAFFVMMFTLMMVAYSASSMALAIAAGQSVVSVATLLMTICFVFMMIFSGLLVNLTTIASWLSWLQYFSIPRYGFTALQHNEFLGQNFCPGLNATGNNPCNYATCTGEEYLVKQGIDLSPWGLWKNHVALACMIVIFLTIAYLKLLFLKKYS
# Experiment notes: Vesicular transport assay, 3H-CCK8 uptake in BCRP membrane vesicles
# Format: biochemical
# Design: purchased ThermoFisher Scientific GM0008; host or cells: Sf9 membrane vesicles
# Condition summary: antioxidant 200 µM; uptake with DMSO set as 100%; mean ± SD, three replicates; membrane vesicles
# label = Met if % Uptake of 3H-CCK8 BCRP >= 80% else Not met

Compound | Group label
O=P(O)(O)O [Phosphoric acid] | Met

Shift focus to the following entry.
Enquiry: Hi, just wondering whether CC(C)c1cc2c(c(O)c1O)[C@@]1(C(=O)O)CCCC(C)(C)[C@@H]1CC2 [Carnosic acid] shows % Uptake of 3H-CCK8 BCRP of 80% or higher.
Return: Not met

###

# Tgt: BCRP (Homo sapiens, UniProt Q9UNQ0)
# Experiment notes: Vesicular transport assay, 3H-CCK8 uptake in BCRP membrane vesicles
# Format: biochemical
# Set-up: purchased ThermoFisher Scientific GM0008; host or cells: Sf9 membrane vesicles
# Condition summary: human, Sf9 membrane vesicles overexpressing human BCRP, pH 7, probe 3H-CCK8; 200 µM; 3H-CCK8
Reported property: inhibition at 20 min, 200 µM

Compound | inhibition at 20 min, 200 µM
CC(C)c1cc2c(c(O)c1O)[C@@]1(C(=O)O)CCCC(C)(C)[C@@H]1CC2 [Carnosic acid] | ≥ 50%

Now turn to the next compound.
Enquiry: Item under review: CCCCCCCCCCCCCCCC(=O)OC[C@H](O)[C@H]1OC(=O)C(O)=C1O [Ascorbyl palmitate (AP), Ascorbyl palmitate] . Reported inhibition at 20 min, 200 µM?
Return: < 50%

###

# Tgt: OATP2B1 (Homo sapiens)
# Sequence (O94956 1-709): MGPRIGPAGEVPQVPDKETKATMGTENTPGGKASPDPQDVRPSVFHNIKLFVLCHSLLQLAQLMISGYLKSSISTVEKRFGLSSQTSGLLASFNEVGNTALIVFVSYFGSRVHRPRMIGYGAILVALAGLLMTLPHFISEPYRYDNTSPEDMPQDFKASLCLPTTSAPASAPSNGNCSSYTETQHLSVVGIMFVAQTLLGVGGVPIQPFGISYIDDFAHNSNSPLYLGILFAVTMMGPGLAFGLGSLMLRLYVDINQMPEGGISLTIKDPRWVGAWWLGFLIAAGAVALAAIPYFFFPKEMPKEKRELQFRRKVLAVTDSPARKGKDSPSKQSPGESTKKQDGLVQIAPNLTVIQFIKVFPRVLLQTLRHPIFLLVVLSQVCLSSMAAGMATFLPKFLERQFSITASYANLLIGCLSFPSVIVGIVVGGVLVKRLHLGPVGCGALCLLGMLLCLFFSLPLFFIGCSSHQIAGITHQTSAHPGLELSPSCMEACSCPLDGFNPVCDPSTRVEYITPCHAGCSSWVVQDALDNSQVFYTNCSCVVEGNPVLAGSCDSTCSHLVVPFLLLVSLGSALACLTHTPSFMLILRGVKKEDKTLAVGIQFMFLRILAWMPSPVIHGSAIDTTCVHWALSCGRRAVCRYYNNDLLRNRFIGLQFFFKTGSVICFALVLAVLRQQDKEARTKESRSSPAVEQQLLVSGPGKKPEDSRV
# Experiment notes: Uptake transporter assay, 3H-estrone sulfate uptake in HEK-293-OATP2B1 cells
# Condition summary: human, HEK-293 cells that express OATP2B1, probe 3H-estrone sulfate, Inhibition of OATP2B1, 200 µM; 3H-estrone sulfate
Reported property: inhibition at 10 min, 200 µM

Enquiry: Item under review: CCCCCCCCCCCCCCCC(=O)OC[C@H](O)[C@H]1OC(=O)C(O)=C1O [Ascorbyl palmitate (AP), Ascorbyl palmitate] . Reported inhibition at 10 min, 200 µM?
Return: > 50%
